# system: Ribonucleoside-diphosphate reductase RR1 (Homo sapiens) (UniProt P23921+Q7LG56+P31350)
# protocol: Inhibition of mammalian ribonucleotide reductase (mRR)
# Format: protein-complex assay
Calls of active or inactive are those of the source. The calls are words filed in the database; no cut-off is given here.
The reply should name one outcome from active, inactive

What did the test return for "CC(C)CO[C@@H]1CC[C@H](N(C)CC(=O)N[C@@H](CC(=O)O)C(=O)N[C@@H](Cc2ccccc2)C(=O)O)[C@@H](COC(=O)CCC2c3ccccc3-c3ccccc32)O1" ?
inactive

Per the assay record, what outcome was assigned to "CC(C)CO[C@@H]1C[C@@H]2[C@@H]([C@@H](COC(=O)COc3ccc4ccccc4c3)O1)N(CC(=O)N[C@@H](CC(=O)O)C(=O)N[C@@H](Cc1ccccc1)C(=O)O)C[C@H]2O" ?
inactive

Assay result, entry "CC(C)CO[C@@H]1CC[C@H](N(C)CC(=O)N[C@@H](CC(=O)O)C(=O)N[C@@H](Cc2ccccc2)C(=O)O)[C@@H](COC(=O)CCc2ccccc2)O1" — outcome?
inactive

Field: outcome | Entry: "CC(C)CO[C@@H]1C[C@@H]2[C@@H]([C@@H](COC(=O)CCc3ccccc3)O1)N(CC(=O)N[C@@H](CC(=O)O)C(=O)N[C@@H](Cc1ccccc1)C(=O)O)C[C@H]2O"
active
